Tested on: Alternaria alternata
ASSAY: Antifungal activity against Alternaria alternata at 1000 ppm after 96 hrs
Format: functional

[
  {
    "STRUCTURE NOTATION": "COc1ccc(-c2nn(-c3ccccc3)cc2-c2oc3ccccc3c(=O)c2O)cc1",
    "inhibition at 1000 ppm / %": 77.3
  },
  {
    "STRUCTURE NOTATION": "O=c1c(O)c(-c2cn(-c3ccccc3)nc2-c2ccccc2)oc2ccccc12",
    "inhibition at 1000 ppm / %": 52.8
  },
  {
    "STRUCTURE NOTATION": "O=c1c(O)c(-c2cn(-c3ccccc3)nc2-c2ccc(Cl)cc2)oc2ccccc12",
    "inhibition at 1000 ppm / %": 38.2
  }
]
